This collection of values is drawn from paper PMC5110259.

- procedure-text: DNS cytotoxicity assay
- Format: cell-based
- condition: human, Hs-27 non-cancerous foreskin fibroblasts
readout-type: CC50 at 24 h (µM)
Hi! Could you send only the number? It should be in µM, unit omitted.

>>> observed_result("COc1cc(/C=C/C(=O)CC(=O)/C=C/c2ccc(O)c(OC)c2)ccc1O [Curcumin, reference compound]")
15.3

Here is another compound to look at.
Which CC50 at 24 h reading was recorded for the compound CCN(CC)CCOc1ccc(C(=O)Oc2ccc(C=C3CN(C)CC(=Cc4ccc(OC(=O)c5ccc(OCCN(CC)CC)cc5)cc4)C3=O)cc2)cc1 [Compound 1] ?
4.78

---

- procedure-text: DNS cytotoxicity assay
- Type: cell-based
- condition: human, Jurkat cells vs MCF-10A cells
readout-type: selectivity ratio at 20 h
Answer with a number only.

Requested read-out: selectivity ratio at 20 h. Entry: `CCN(CC)CCOc1ccc(C(=O)Oc2ccc(C=C3CN(C)CC(=Cc4ccc(OC(=O)c5ccc(OCCN(CC)CC)cc5)cc4)C3=O)cc2)cc1`
36.3

---

selectivity ratio at 20 h overview
- procedure-text: DNS cytotoxicity assay
- Assay type: cell-based
- condition: human, Jurkat cells vs Hs-27 cells
Form rule: numeric answer, no unit written next to it.

>>> observed_result("CCN(CC)CCOc1ccc(C(=O)Oc2ccc(C=C3CN(C)CC(=Cc4ccc(OC(=O)c5ccc(OCCN(CC)CC)cc5)cc4)C3=O)cc2)cc1")
11.1

Need selectivity ratio at 20 h, item COc1cc(/C=C/C(=O)CC(=O)/C=C/c2ccc(O)c(OC)c2)ccc1O [Curcumin, reference compound]
1.4

---

- procedure-text: DNS cytotoxicity assay
- Type: cell-based
- condition: human, MCF-10A non-cancerous mammary epithelial cells
compounds and their reported CC50 at 24 h

>>> observed_result("CCN(CC)CCOc1ccc(C(=O)Oc2ccc(C=C3CN(C)CC(=Cc4ccc(OC(=O)c5ccc(OCCN(CC)CC)cc5)cc4)C3=O)cc2)cc1")
"15.6 µM"

Turning now to a further compound:
# lookup: CC50 at 24 h of COc1cc(/C=C/C(=O)CC(=O)/C=C/c2ccc(O)c(OC)c2)ccc1O [Curcumin, reference compound]
14.1 µM

---

- procedure-text: DNS cytotoxicity assay
- Format: cell-based
- condition: human, Nalm 6 cells vs Hs-27 cells
Listed here are compounds together with their documented selectivity ratio at 20 h.
Lab note: record the figure alone, no unit after it.

>>> observed_result("CCN(CC)CCOc1ccc(C(=O)Oc2ccc(C=C3CN(C)CC(=Cc4ccc(OC(=O)c5ccc(OCCN(CC)CC)cc5)cc4)C3=O)cc2)cc1")
5.6

Proceed to the following item.
Requested field: selectivity ratio at 20 h. Item: COc1cc(/C=C/C(=O)CC(=O)/C=C/c2ccc(O)c(OC)c2)ccc1O [Curcumin, reference compound]
1.4

---

- procedure-text: DNS cytotoxicity assay
- Assay type: cell-based
- condition: human, Jurkat cells vs CCD-112CoN cells
readout-type: selectivity ratio at 20 h
Just the number, please, no unit attached.

Item CCN(CC)CCOc1ccc(C(=O)Oc2ccc(C=C3CN(C)CC(=Cc4ccc(OC(=O)c5ccc(OCCN(CC)CC)cc5)cc4)C3=O)cc2)cc1 [Compound 1] has what recorded selectivity ratio at 20 h?
10.9

---

Items are presented alongside their recorded selectivity ratio at 20 h.
- procedure-text: DNS cytotoxicity assay
- Format: cell-based
- condition: human, CEM cells vs Hs-27 cells
Could you respond with only the numeric value?

>>> observed_result("COc1cc(/C=C/C(=O)CC(=O)/C=C/c2ccc(O)c(OC)c2)ccc1O [Curcumin, reference compound]")
1.4

Continue with the compound presented below.
Give its selectivity ratio at 20 h value. Item: CCN(CC)CCOc1ccc(C(=O)Oc2ccc(C=C3CN(C)CC(=Cc4ccc(OC(=O)c5ccc(OCCN(CC)CC)cc5)cc4)C3=O)cc2)cc1 [Compound 1]
8.1
